EXPERIMENTAL SYSTEM: T1, orthogonal hCD122 receptor (hoRb), hCD122 with H133D and Y134F (human, UniProt P14784 27-550)
T1 sequence: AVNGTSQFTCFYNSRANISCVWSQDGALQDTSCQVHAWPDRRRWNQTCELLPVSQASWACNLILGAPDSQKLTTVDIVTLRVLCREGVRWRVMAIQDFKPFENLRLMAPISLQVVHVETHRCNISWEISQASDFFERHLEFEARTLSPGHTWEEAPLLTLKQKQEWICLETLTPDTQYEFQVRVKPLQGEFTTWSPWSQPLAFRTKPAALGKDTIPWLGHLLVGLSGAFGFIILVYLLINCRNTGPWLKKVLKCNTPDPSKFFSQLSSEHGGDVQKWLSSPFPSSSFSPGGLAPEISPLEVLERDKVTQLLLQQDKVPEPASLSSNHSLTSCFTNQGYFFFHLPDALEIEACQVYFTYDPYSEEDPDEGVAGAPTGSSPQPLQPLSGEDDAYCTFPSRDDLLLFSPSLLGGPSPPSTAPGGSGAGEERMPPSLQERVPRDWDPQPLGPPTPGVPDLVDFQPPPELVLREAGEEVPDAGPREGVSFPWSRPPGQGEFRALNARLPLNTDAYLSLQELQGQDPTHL
ASSAY TEXT: cell-based or functional assay
Kindly supply the reported 3F8 Ortho Proliferation Signal 1:50 values for the records listed here.
Answers are plain numbers, in cts/min.

| BINDER | ENDPOINT LABEL | VALUE REPORTED |
| --- | --- | --- |
| SQVLYA, E116G (ligand) APTSSSTKKTQLQLSQLLVLLYAILNGINNYKNPKLTRMLTFKFYMPKKATELKHLQCLEEELKPLEEVLNLAQSKNFHLRPRDLISNINVIVLELKGSETTFMCEYADETATIVEFLNRWITFCQSIISTLT | 3F8 Ortho Proliferation Signal 1:50 | 2510 |

For every item in the list below, what is its measured 3F8 Ortho Proliferation Signal 1:50?
1. L18T, SQVLKA (ligand) APTSSSTKKTQLQLSQLTVLLKAILNGINNYKNPKLTRMLTFKFYMPKKATELKHLQCLEEELKPLEEVLNLAQSKNFHLRPRDLISNINVIVLELKGSETTFMCEYADETATIVEFLNRWITFCQSIISTLT
2. Q126M, SQVLKA (ligand) APTSSSTKKTQLQLSQLLVLLKAILNGINNYKNPKLTRMLTFKFYMPKKATELKHLQCLEEELKPLEEVLNLAQSKNFHLRPRDLISNINVIVLELKGSETTFMCEYADETATIVEFLNRWITFCMSIISTLT

25700
17100

Tell me measured 3F8 Ortho Proliferation Signal 1:50 for H55Y, SQVLKA (ligand) APTSSSTKKTQLQLSQLLVLLKAILNGINNYKNPKLTRMLTFKFYMPKKATELKYLQCLEEELKPLEEVLNLAQSKNFHLRPRDLISNINVIVLELKGSETTFMCEYADETATIVEFLNRWITFCQSIISTLT please.
16500
